experiment: qHTS for Inhibitors of Plasmodium falciparum (GB4) proliferation (AID 504315); further: nearly all actives have a fitted effect of over 50% in size; conditions: P. falciparum GB4 in erythrocytes, SYBR Green DNA, 72 h; series mostly up to 6.7 µM
Records with an inconclusive call do not appear. Calls of active or inactive are those of the source. The call rests on the fitted dose curve; in most records, active means well fitted inhibition curve with a large enough effect; inconclusive means small, poorly fitted or top-dose-only effect, or effect the other way; inactive means flat fitted curve, though single readings scatter.
value_kind: outcome

• CC(=O)C1=C(C)N(Cc2ccccc2)C(=O)NC1c1cccc(C(F)(F)F)c1 (stereo not drawn) = inactive
• CC(C)=NOCc1ccc(-c2cn([C@@H]3COC[C@@H]3O)nn2)cc1 = inactive
• COC(=O)C1=C(C)N(Cc2ccco2)C(=O)NC1c1ccc(Br)cc1 (stereo not drawn) = inactive

----------
target: Cytochrome P450 1A2 (Homo sapiens) (UniProt P05177); test: p450-cyp1a2 (AID 410); conditions: recombinant CYP1A2, luciferin-ME demethylation, luminescence; series mostly up to 57 µM; further: potency means the concentration at half of the fitted maximal effect
Sequence (P05177 whole entry, looked up): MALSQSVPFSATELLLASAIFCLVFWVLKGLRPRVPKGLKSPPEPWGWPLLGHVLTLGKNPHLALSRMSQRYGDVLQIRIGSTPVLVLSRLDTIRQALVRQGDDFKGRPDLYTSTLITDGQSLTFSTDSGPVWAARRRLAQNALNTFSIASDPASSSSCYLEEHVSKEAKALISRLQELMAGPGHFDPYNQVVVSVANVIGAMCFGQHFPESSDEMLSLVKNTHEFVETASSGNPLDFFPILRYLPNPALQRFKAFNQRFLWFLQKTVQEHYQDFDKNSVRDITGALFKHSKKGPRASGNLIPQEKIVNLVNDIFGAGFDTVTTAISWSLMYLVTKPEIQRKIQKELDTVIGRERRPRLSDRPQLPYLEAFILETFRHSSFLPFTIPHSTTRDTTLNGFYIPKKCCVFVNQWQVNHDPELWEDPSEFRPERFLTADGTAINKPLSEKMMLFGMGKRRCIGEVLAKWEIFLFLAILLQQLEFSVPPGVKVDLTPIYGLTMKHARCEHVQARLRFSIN
Results filed as inconclusive are left out. Active and inactive are the calls of the source. The call rests on the fitted dose curve.
value_kind: Potency

* N[C@@H](CO)C(=O)O | inactive
* Cc1cccc([C@@H]2CN(C)CCc3c2cc(O)c(O)c3Cl)c1 | inactive
* COc1ccccc1N1CCN(C[C@@H](C(=O)NC(C)(C)C)c2ccccc2)CC1 | 0.631 µM (active)
* N=C(N)SCCc1ccc(OCc2ccc([N+](=O)[O-])cc2)cc1 | 31.6 µM (active)
* Oc1cc2c(cc1O)[C@H](c1ccccc1)CNCC2 | inactive

Respond only with Potency recorded for CCOC(=O)C1=C(N)Oc2ccc(Br)cc2[C@@H]1[C@@H](C#N)C(=O)OCC 0.251 µM (active)

Identify measured Potency associated with O=C(NCCN1CCCCC1)c1ccc(I)cc1 25.1 µM (active)

Answer with reported Potency of C[C@@]1(C(=O)O)NCCc2cc(O)c(O)cc21 inactive

Give the measured Potency for CNC(=O)Oc1ccc2c(c1)[C@@]1(C)CCN(C)[C@@H]1N2C inactive

Annotate the compound CNCCCCCCCCSc1nc(C(C)C)ccc1C(=O)c1cccs1 with its measured Potency. 31.6 µM (active)

Look up Potency of CC[C@H](C)C(=O)O[C@H]1CCC=C2C=C[C@H](C)[C@H](CC[C@@H]3C[C@H](O)CC(=O)O3)[C@H]21 and report it. 31.6 µM (active)

Answer with reported Potency of CC[C@]1(O)C[C@@H]2CN(CCc3c([nH]c4ccccc34)[C@](C(=O)OC)(c3cc4c(cc3OC)N(C)[C@H]3[C@](O)(C(=O)OC)[C@@H](C(=O)OC)[C@@]5(CC)C=CCN6CC[C@@]43[C@@H]65)C2)C1 inactive

----------
Tested on: PA-1
Experiment: Primary qHTS to identify gynecologic anti-cancer compounds using libraries of approved drugs and bioactive compounds (AID 1345084); further: nearly all actives have a fitted effect of over 55% in size; further: potency means the concentration at half of the fitted maximal effect
Settings: Gynecologic cancer cell panel viability, ATPlite luminescence, 48 h; series mostly up to 57.5 µM
From the text: National Center for Advancing Translational Sciences [NCATS] Assay Overview: Chemotherapeutic drug responses vary from cancer to cancer and from patient to patient. […] ATPlite is a luminescence based assay reliant on the conversion of a luciferase substrate to light in the presence of ATP. As a cytotoxic compound will suppress growth and decrease the number of cells, the concentration of ATP will decrease, and less light signal will be detected in the well. […]
Inconclusive results are not listed. Activity calls are given as the source filed them. The call rests on the fitted dose curve; in most records, active means well fitted cell-killing curve with a large enough effect; inconclusive means small, poorly fitted or top-dose-only effect, or effect the other way; inactive means flat fitted curve, though single readings scatter.
value_kind: Potency

# annotated cases, reported Potency shown
• C=C1C(=O)O[C@@H]2/C=C(/C)CC3C=C(C[C@H](OC(=O)/C(C)=C\C)[C@@H]12)C(=O)O3 (stereo partly drawn) = inactive
• C=CC(=O)N1CCN(C(=O)c2cc(-c3cc(Cl)ccc3Cl)c(Cl)cc2OC)CC1 = inactive
• CC(=O)Nc1ccc(C(=O)Nc2ccccc2N)cc1 = 7.08 µM (active)
• OCC(CO)(CO)NCC(O)Cn1c2ccc(Cl)cc2c2cc(Cl)ccc21 (stereo not drawn) = inactive
• C[C@@H](c1nc(-c2ccc(C#N)cc2)cs1)[C@](O)(Cn1cncn1)c1cc(F)ccc1F = inactive
• C[N+]1(C)[C@@H]2CC[C@H]1CC(OC(=O)C(O)c1ccccc1)C2 (stereo partly drawn) = inactive
• Cc1cc(CN)cc(C)c1NC(=O)c1ccc(-c2cc(Cl)ccc2Cl)o1 = inactive
• Fc1ccc(C2CCNC[C@H]2COc2ccc3c(c2)OCO3)cc1 (stereo partly drawn) = inactive
• CC[C@]1(O)C[C@H]2CN(CCC3C(=Nc4ccccc43)[C@@](C(=O)OC)(c3cc4c(cc3OC)N(C)[C@H]3[C@@](O)(C(N)=O)[C@H](O)[C@]5(CC)C=CCN6CC[C@]43[C@@H]65)C2)C1 (stereo partly drawn) = 0.1 µM (active)
• CCCc1c(C(C)C)nc(C(C)C)c([C@@H](C)O)c1-c1ccc(F)cc1O = inactive

For the compound COc1cccc(CNC(=O)Nc2nc(-c3ccncc3)cs2)c1 , report Potency. inactive

Note Potency for the compound shown: Cc1cc(N=Nc2ccc(S(=O)(=O)Nc3ccccn3)cc2)c(N)cc1O 8.91 µM (active)

Fill in Potency for record CCS(=O)(=O)N(Cc1cccnc1)c1cccc(-c2ccc(C#N)cc2)c1 inactive
